tgt: DDR2 (Homo sapiens, UniProt Q16832)
Sequence (Q16832 22-855): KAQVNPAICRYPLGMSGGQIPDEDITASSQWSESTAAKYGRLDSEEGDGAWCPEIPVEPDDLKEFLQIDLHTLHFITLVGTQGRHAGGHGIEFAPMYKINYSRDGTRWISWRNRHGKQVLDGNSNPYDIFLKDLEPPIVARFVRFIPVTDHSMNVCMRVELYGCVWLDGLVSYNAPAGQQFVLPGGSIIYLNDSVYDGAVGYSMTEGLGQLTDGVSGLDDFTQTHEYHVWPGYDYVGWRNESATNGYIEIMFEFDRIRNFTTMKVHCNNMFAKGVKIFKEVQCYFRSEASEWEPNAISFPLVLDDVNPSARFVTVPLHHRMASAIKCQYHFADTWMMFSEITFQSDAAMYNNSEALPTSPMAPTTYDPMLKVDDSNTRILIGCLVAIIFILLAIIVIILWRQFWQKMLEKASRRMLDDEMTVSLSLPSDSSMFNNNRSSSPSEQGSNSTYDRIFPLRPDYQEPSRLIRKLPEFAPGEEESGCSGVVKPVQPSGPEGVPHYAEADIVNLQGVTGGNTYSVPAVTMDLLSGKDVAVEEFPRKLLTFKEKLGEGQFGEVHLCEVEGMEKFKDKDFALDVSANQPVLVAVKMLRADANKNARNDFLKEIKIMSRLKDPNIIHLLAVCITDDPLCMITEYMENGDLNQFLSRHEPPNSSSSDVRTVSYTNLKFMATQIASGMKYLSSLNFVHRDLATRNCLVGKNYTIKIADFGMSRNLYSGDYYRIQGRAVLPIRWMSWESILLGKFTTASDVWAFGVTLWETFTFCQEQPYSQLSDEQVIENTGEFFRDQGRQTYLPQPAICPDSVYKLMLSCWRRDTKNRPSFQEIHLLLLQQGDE
experiment.summary: ELISA kinase assay, DDR2
Type: biochemical
experimental.conditions: DDR2 IC50, two separate experiments
test.readout: pIC50
Quick note: pIC50 means taking -log10 of the concentration in moles per liter.

Would you please look over these solved cases?
>>> readout_value("Cc1ccc(C(=O)Nc2cccc(C(F)(F)F)c2)cc1-c1ccc2nc(NC3CCN(C)CC3)ncc2c1")
7.98
>>> readout_value("Cc1ccc(C(=O)Nc2cc(CN3CCCN(C)CC3)cc(C(F)(F)F)c2)cc1-c1ccc2nc(Nc3cnn(C)c3)ncc2c1")
8.55
>>> readout_value("Cc1ccc(C(=O)Nc2cccc(C(F)(F)F)c2)cc1-c1ccc2nc(Nc3cccc(N4CCN(C)CC4)c3)ncc2c1")
8.20
>>> readout_value("Cc1ccc(C(=O)Nc2cccc(C(F)(F)F)c2)cc1-c1ccc2nc(Nc3ccc(N4CCN(C)CC4)cc3)ncc2c1")
8.24
>>> readout_value("Cc1ccc(C(=O)Nc2cccc(C(F)(F)F)c2)cc1-c1ccc2nc(N)ncc2c1")
8.72
>>> readout_value("Cc1ccc(C(=O)Nc2cc(CN3C[C@H]4CC[C@@H](C3)N4C)cc(C(F)(F)F)c2)cc1-c1ccc2nc(Nc3cnn(C)c3)ncc2c1")
8.54

// below: pIC50 requested for another molecule
State the recorded pIC50 for this entry: Cc1ccc(C(C)NC(=O)c2cccc(C(F)(F)F)c2)cc1-c1ccc2nc(Nc3cnn(C4CC4)c3)ncc2c1 (stereo not shown)
8.37
